molecular target: 3',5'-cyclic-AMP phosphodiesterase 4B (Homo sapiens, UniProt Q07343); assay: Inhibition of core catalytic domains PDE4B (unknown origin)
Sequence (Q07343 whole entry, the tested form may be a part): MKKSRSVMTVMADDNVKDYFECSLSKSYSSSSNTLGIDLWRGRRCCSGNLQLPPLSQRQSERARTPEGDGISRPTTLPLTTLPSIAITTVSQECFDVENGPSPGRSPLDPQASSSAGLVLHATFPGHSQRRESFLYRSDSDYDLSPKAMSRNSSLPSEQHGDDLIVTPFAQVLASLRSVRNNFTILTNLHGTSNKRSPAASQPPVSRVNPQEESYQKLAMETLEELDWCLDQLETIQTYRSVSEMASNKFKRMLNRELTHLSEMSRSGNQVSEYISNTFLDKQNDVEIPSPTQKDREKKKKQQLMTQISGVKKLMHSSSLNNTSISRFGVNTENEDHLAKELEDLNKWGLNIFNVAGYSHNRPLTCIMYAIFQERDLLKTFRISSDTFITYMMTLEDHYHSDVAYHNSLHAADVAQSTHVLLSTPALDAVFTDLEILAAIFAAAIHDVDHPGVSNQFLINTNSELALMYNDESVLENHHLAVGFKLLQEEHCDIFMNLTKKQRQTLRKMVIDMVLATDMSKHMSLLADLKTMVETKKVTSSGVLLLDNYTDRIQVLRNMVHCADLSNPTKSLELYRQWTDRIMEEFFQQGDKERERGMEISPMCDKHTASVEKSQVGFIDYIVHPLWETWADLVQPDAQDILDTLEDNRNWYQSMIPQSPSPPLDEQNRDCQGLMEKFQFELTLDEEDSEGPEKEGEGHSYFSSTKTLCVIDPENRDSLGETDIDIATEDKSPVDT
Please go through the items and note down their log10 of IC50.
On a log10 scale: recorded IC50, unit nM.

Record request: log10 of IC50 value, item `COCc1ccc(C(=O)Nc2c(Cl)cncc2Cl)c2cc(C(F)(F)F)nn12`
0.65

Another compound: COc1ccc(C(=O)Nc2c(Cl)cncc2Cl)c2cc(C(C)O)nn12 (centres undefined)
1.92

Another compound: `COc1ccc(C(=O)Nc2c(Cl)cncc2Cl)c2cc(C(F)(F)F)nn12`
-0.57

Another compound: `CNc1ccc(C(=O)Nc2c(Cl)cncc2Cl)c2cc(C(F)(F)F)nn12`
-0.72

Another compound: `COc1ccc(C(=O)C(=O)c2ccncc2)c2cc(C(F)(F)F)nn12`
3.10

Another compound: `COc1ccc(/C=C/c2c(Cl)cncc2Cl)c2cc(C(F)(F)F)nn12`
0.74

Another compound: `COc1ccc(/C=C/c2ccncc2)c2cc(C(F)(F)F)nn12`
1.18

Another compound: `COc1ccc(C(=O)Nc2c(Cl)cncc2Cl)c2ccnn12`
1.59

Another compound: `O=C(Nc1c(Cl)cncc1Cl)c1ccc(CO)n2nc(C(F)(F)F)cc12`
1.49

Another compound: `COc1ccc(C(=O)Nc2c(Cl)c[n+]([O-])cc2Cl)c2cc(C(F)(F)F)nn12`
0.18

Another compound: `COc1cccc2c(C(=O)Nc3c(Cl)cncc3Cl)c(C(F)(F)F)nn12`
3.79

Another compound: `COc1ccc(C(=O)Nc2c(Cl)c[n+]([O-])cc2Cl)c2cc(C(C)C)nn12`
1.00

Another compound: `COCc1cc2c(C(=O)Nc3c(Cl)cncc3Cl)ccc(OC)n2n1`
1.11

Another compound: CC(O)c1ccc(C(=O)Nc2c(Cl)cncc2Cl)c2cc(C(F)(F)F)nn12 (centres undefined)
0.90

Another compound: `COc1ccc(C(=O)Cc2ccncc2)c2cc(C(F)(F)F)nn12`
0.97

Another compound: `COc1ccc(Cc2ccncc2)c2cc(C(F)(F)F)nn12`
2.76

Another compound: `COc1ccc(C(=O)Nc2c(Cl)cncc2Cl)c2cc(C#N)nn12`
0.61

Another compound: `COc1ccc(C(=O)c2ccncc2)c2cc(C(F)(F)F)nn12`
2.99

Another compound: `COc1ccc(C(=O)Nc2c(Cl)cncc2Cl)c2cc(C(C)=O)nn12`
0.46

Entry source: ChEMBL document CHEMBL2424518
